B1: MFF (parent)
chain: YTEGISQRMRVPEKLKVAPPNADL

Variants of: B1
Experiment: protein stability index of a GFP-peptide fusion (GPS, HEK-293T) (PSI 1-6); higher = more stable;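 note: lentivirally expressed fusions sorted by FACS into six bins by GFP to DsRed ratio, PSI derived from sequencing read proportions per bin multiplied by bin number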
Details: c terminus: a fixed tail appended
experimental_readout: protein stability index
Output: the number by itself.

Answered examples (3):
>>> quantitative_result("YTEGISQRMRVTEKLKVAPPNADL [P12T]")
2.09
>>> quantitative_result("YTEGISQRMRVPEKLKVAIPNADL [P19I]")
2.52
>>> quantitative_result("YTEGISQRVRVPEKLKVAPPNADL [M9V]")
2.35

GET /values?readout=protein stability index&item= YTEGIRQRMRVPEKLKVAPPNADL [S6R]
2.94

What does the record list as protein stability index for YTEGISQRMRVPEKLRVAPPNADL [K16R] ?
2.34

Data provenance: the supplement of paper PMC10567573
